Target: hTAS2R16 (Homo sapiens, UniProt Q9NYV7, R222H)
Construct: gene-specific primers that span the complete coding region of the individual hTAS2R genes; first 45 amino acids of rat somatostatin type 3 receptor (cell surface-targeting signal) (N); expressed in transfected cells; host or cells: HEK293/15 cells (HEK293 stably expressing Galpha15), transient transfection
Test: FLIPR assay, heterologous expression of hTAS2R16
Format: cell-based
Details: hTAS2R16
From the text: Transient transfection of TAS2Rs into HEK-293T-Gα16gustducin44 cells.
Examples of molecules with documented Threshold follow.

structure smiles: O=Cc1ccccc1O[C@@H]1O[C@H](CO)[C@@H](O)[C@H](O)[C@H]1O
Threshold (mM): 0.3
--
structure smiles: OC[C@H]1O[C@@H](Oc2ccc(O)cc2)[C@H](O)[C@@H](O)[C@@H]1O
Threshold (mM): 0.5

* * *

Recorded Approx. Threshold by entry
Molecular target: hTAS2R10 (Homo sapiens, UniProt Q9NYW0, T156M)
Construct: gene-specific primers that span the complete coding region of the individual hTAS2R genes; first 45 amino acids of rat somatostatin type 3 receptor (cell surface-targeting signal) (N); expressed in transfected cells; host or cells: HEK-293T-Gα16gustducin44 cells (alternatively HEK-293 co-transfected with phospholipase-Cβ2 and α-gustducin)
Sequence (Q9NYW0 whole entry T156M): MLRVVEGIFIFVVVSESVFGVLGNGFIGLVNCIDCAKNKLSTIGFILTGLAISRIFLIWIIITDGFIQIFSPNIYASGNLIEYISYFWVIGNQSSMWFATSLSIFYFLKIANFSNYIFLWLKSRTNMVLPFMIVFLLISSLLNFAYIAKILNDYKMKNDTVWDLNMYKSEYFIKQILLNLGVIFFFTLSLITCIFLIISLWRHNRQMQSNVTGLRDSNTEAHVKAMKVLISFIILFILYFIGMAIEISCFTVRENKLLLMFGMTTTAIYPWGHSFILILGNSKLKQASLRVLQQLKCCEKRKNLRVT
Assay: FLIPR assay, heterologous expression of hTAS2R10
Type: cell-based
Conditions: hTAS2R10

compound: O=C1C[C@@H]2OCC=C3CN4CC[C@]56c7ccccc7N1[C@H]5[C@H]2[C@H]3C[C@H]46 [Strychnine]
Approx. Threshold: 0.003 mM

compound: CC[N+](CC)(CC(=O)Nc1c(C)cccc1C)Cc1ccccc1.O=C([O-])c1ccccc1 [Denatonium benzoate]
Approx. Threshold: 0.003 mM

compound: COc1cc2c(cc1OC)[C@@]13CCN4CC5=CCO[C@H]6CC(=O)N2[C@H]1[C@H]6[C@H]5C[C@H]43 [Brucine]
Approx. Threshold: 0.01 mM

compound: CC1=C[C@@H]2[C@@H]3C4C(=C(C)[C@@H]3[C@@]13[C@@H]2[C@@](C)(O)CC[C@H]1[C@H](C)C(=O)O[C@@H]13)[C@H]1OC(=O)[C@@H](C)[C@@H]1CC[C@]4(C)O (stereo partly shown) [Absinthine]
Approx. Threshold: 0.01 mM

* * *

Molecular target: hTAS2R16 (Homo sapiens, UniProt Q9NYV7, R222H)
Construct: gene-specific primers that span the complete coding region of the individual hTAS2R genes; first 45 amino acids of rat somatostatin type 3 receptor (cell surface-targeting signal) (N); expressed in transfected cells; host or cells: HEK293/15 cells (HEK293 stably expressing Galpha15), transient transfection
Sequence (Q9NYV7 1-291 R222H): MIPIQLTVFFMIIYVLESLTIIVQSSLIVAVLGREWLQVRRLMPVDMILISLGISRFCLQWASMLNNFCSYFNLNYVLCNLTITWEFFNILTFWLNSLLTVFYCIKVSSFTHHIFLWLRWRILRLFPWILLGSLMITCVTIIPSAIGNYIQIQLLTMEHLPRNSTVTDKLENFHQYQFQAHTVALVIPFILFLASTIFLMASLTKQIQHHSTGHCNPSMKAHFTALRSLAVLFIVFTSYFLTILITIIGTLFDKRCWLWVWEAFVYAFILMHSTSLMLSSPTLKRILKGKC
Test: FLIPR assay, heterologous expression of hTAS2R16
Type: cell-based

compound: N#CC(O[C@@H]1O[C@H](CO[C@@H]2O[C@H](CO)[C@@H](O)[C@H](O)[C@H]2O)[C@@H](O)[C@H](O)[C@H]1O)c1ccccc1 (stereo partly shown)
system under test: hTAS2R16 (Homo sapiens, UniProt Q9NYV7, R222H)
EC50, mM: 20

* * *

Molecular target: hTAS2R16 (Homo sapiens, UniProt Q9NYV7, R222H)
Construct: gene-specific primers that span the complete coding region of the individual hTAS2R genes; first 45 amino acids of rat somatostatin type 3 receptor (cell surface-targeting signal) (N); expressed in transfected cells; host or cells: HEK293/15 cells (HEK293 stably expressing Galpha15), transient transfection
Test: FLIPR calcium assay, hTAS2R16-expressing HEK293/15 transfectants
Type: cell-based
pEC50: −log10 of the molar value.
Overview of reported pEC50 across a group of molecules:
property measured: pEC50

molecule: OC[C@H]1O[C@@H](Oc2ccccc2)[C@H](O)[C@@H](O)[C@@H]1O [Compound 1, phenyl-beta-D-glucopyranoside]
result qualifier: =
measured number: 2.96
//
molecule: OC[C@H]1O[C@@H](Oc2ccc(O)cc2)[C@H](O)[C@@H](O)[C@@H]1O [Compound 4, arbutin]
result qualifier: =
measured number: 2.24
//
molecule: OC[C@H]1O[C@@H](Oc2ccc3ccccc3c2)[C@H](O)[C@@H](O)[C@@H]1O [Compound 6, naphthyl-beta-D-pyranoside]
result qualifier: =
measured number: 3.00
//
molecule: N#CC(O[C@@H]1O[C@H](CO[C@@H]2O[C@H](CO)[C@@H](O)[C@H](O)[C@H]2O)[C@@H](O)[C@H](O)[C@H]1O)c1ccccc1 (some centres unmarked) [Compound 8, amygdalin]
result qualifier: =
measured number: 1.70
//
molecule: O=Cc1ccccc1O[C@@H]1O[C@H](CO)[C@@H](O)[C@H](O)[C@H]1O [Compound 3, helicin]
result qualifier: =
measured number: 2.64
//
molecule: OC[C@H]1O[C@@H](Oc2ccccc2)[C@H](O)[C@@H](O)[C@H]1O [Compound 10, phenyl-beta-D-galactopyranoside]
result qualifier: <
measured number: 1.00
//
molecule: OCc1ccccc1O[C@@H]1O[C@H](CO)[C@@H](O)[C@H](O)[C@H]1O [Compound 2, salicin]
result qualifier: =
measured number: 2.85
//
molecule: OCC1OC(Oc2ccccc2)C(O)C(O)C1O [Compound 11, phenyl-alpha-D-glucopyranoside]
result qualifier: <
measured number: 1.00

* * *

Catalogue of compounds with associated Threshold
Target: hTAS2R16 (Homo sapiens, UniProt Q9NYV7, R222H)
Construct: gene-specific primers that span the complete coding region of the individual hTAS2R genes; first 45 amino acids of rat somatostatin type 3 receptor (cell surface-targeting signal) (N); expressed in transfected cells; host or cells: HEK293/15 cells (HEK293 stably expressing Galpha15), transient transfection
Sequence (Q9NYV7 1-291 R222H): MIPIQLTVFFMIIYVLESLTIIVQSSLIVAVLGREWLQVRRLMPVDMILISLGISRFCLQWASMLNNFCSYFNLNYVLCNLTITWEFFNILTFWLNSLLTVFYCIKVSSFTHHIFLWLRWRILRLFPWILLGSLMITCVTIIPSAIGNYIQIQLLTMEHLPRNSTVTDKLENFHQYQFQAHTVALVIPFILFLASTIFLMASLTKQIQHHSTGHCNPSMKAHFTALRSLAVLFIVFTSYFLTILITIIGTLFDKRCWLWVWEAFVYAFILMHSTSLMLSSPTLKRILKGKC
Test: FLIPR assay, heterologous expression of hTAS2R16
Assay type: cell-based
Conditions: hTAS2R16
From the text: Transient transfection of TAS2Rs into HEK-293T-Gα16gustducin44 cells.
property measured: Threshold

compound: O=[N+]([O-])c1ccc(O[C@@H]2O[C@H](CO)[C@@H](O)[C@H](O)[C@@H]2O)cc1 [4-Nitrophenyl-β-D-Mannoside]
result: 1 − 3 mM
//
compound: O=[N+]([O-])c1ccc(O[C@@H]2O[C@H](CO)[C@@H](O)[C@H](O)[C@H]2O)cc1 [4-Nitrophenyl-β-D-Glucoside]
result: 1 − 3 mM
//
compound: O=[N+]([O-])c1ccccc1O[C@@H]1O[C@H](CO)[C@@H](O)[C@H](O)[C@H]1O [Compound 5, 2-nitro-phenyl-beta-D-glucopyranoside]
result: 0.3 − 1 mM

* * *

Target: hTAS2R16 (Homo sapiens, UniProt Q9NYV7, R222H)
Construct: gene-specific primers that span the complete coding region of the individual hTAS2R genes; first 45 amino acids of rat somatostatin type 3 receptor (cell surface-targeting signal) (N); expressed in transfected cells; host or cells: HEK293/15 cells (HEK293 stably expressing Galpha15), transient transfection
Assay: FLIPR assay, heterologous expression of hTAS2R16
Type: cell-based
Conditions: hTAS2R16; read-out: EC50
property measured: EC50 (µM)

compound: OC[C@H]1O[C@@H](Oc2ccc(O)cc2)[C@H](O)[C@@H](O)[C@@H]1O [Compound 4, arbutin]
property measured: EC50
measured number: 5800
//
compound: OCc1ccccc1O[C@@H]1O[C@H](CO)[C@@H](O)[C@H](O)[C@H]1O [Compound 2, salicin]
property measured: EC50
measured number: 1400
//
compound: OC[C@H]1O[C@@H](Oc2ccccc2)[C@H](O)[C@@H](O)[C@@H]1O [Compound 1, phenyl-beta-D-glucopyranoside]
property measured: EC50
measured number: 1100
